These data points were gathered from ChEMBL document CHEMBL5233289.

experiment: Cytotoxicity against rat H9c2 cells assessed as cell viability at 10 uM incubated for 24 hrs by MTT assay (reference value: 100%); type: toxicity, cell-based; conditions: read-out: Activity
measured_parameter: viability at 24 h, 10 µM (%)
One number for each entry, in %.

Query: Name the reported viability at 24 h, 10 µM value associated with the molecule CCCCCCCCCCCC1=C(O)C(=O)c2c(nc3ccc(OC)cc3c2-c2ccc([N+](=O)[O-])cc2)C1=O
Response: 99.2

----------
assay: Cytotoxicity against rat H9c2 cells assessed as cell viability at 20 uM incubated for 24 hrs by MTT assay (reference value: 100%); format: toxicity, cell-based; details: read-out: Activity
measured_parameter: viability at 24 h, 20 µM (%)
One number for each entry, in %.

Query: For the compound shown here, CCCCCCCCCCCC1=C(O)C(=O)c2c(nc3ccc(OC)cc3c2-c2ccc([N+](=O)[O-])cc2)C1=O , give the reported viability at 24 h, 20 µM.
Response: 94.4
